biological target: UniProt Q02750; assay: pIC50, kinobeads binding competition; conditions: cell material: Lysate mix
Sequence (Q02750 whole entry): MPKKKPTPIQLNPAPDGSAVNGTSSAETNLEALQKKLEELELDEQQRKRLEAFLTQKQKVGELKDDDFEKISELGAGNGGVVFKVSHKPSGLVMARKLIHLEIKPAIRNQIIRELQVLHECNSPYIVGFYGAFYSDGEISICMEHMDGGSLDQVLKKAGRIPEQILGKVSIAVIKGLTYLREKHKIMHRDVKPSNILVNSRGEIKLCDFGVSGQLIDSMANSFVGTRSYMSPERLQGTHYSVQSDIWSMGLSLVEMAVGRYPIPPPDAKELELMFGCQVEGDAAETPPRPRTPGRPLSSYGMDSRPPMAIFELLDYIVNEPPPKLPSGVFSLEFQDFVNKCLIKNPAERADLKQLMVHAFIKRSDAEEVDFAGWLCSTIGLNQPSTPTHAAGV
Known pIC50 of a selection of molecules
// no unit string in output, number only

- Compound structure string: "CCNC(=O)c1cc(Nc2cc(C3CC3)[nH]n2)nc(N2CCN(Cc3ccc(S(=O)(=O)F)cc3)CC2)n1"
  Target desc: "UniProt Q02750"
  pIC50: 5.78

pIC50 of `C#CCNC(=O)c1cc(Nc2cc(C3CC3)[nH]n2)nc(N2CCN(Cc3ccc(S(=O)(=O)F)cc3)CC2)n1` , assay on UniProt Q02750, is 5.59

###

target: MAST4 (UniProt O15021); assay: pIC50, kinobeads binding competition; conditions: cell material: Lysate mix
Sequence (O15021 whole entry): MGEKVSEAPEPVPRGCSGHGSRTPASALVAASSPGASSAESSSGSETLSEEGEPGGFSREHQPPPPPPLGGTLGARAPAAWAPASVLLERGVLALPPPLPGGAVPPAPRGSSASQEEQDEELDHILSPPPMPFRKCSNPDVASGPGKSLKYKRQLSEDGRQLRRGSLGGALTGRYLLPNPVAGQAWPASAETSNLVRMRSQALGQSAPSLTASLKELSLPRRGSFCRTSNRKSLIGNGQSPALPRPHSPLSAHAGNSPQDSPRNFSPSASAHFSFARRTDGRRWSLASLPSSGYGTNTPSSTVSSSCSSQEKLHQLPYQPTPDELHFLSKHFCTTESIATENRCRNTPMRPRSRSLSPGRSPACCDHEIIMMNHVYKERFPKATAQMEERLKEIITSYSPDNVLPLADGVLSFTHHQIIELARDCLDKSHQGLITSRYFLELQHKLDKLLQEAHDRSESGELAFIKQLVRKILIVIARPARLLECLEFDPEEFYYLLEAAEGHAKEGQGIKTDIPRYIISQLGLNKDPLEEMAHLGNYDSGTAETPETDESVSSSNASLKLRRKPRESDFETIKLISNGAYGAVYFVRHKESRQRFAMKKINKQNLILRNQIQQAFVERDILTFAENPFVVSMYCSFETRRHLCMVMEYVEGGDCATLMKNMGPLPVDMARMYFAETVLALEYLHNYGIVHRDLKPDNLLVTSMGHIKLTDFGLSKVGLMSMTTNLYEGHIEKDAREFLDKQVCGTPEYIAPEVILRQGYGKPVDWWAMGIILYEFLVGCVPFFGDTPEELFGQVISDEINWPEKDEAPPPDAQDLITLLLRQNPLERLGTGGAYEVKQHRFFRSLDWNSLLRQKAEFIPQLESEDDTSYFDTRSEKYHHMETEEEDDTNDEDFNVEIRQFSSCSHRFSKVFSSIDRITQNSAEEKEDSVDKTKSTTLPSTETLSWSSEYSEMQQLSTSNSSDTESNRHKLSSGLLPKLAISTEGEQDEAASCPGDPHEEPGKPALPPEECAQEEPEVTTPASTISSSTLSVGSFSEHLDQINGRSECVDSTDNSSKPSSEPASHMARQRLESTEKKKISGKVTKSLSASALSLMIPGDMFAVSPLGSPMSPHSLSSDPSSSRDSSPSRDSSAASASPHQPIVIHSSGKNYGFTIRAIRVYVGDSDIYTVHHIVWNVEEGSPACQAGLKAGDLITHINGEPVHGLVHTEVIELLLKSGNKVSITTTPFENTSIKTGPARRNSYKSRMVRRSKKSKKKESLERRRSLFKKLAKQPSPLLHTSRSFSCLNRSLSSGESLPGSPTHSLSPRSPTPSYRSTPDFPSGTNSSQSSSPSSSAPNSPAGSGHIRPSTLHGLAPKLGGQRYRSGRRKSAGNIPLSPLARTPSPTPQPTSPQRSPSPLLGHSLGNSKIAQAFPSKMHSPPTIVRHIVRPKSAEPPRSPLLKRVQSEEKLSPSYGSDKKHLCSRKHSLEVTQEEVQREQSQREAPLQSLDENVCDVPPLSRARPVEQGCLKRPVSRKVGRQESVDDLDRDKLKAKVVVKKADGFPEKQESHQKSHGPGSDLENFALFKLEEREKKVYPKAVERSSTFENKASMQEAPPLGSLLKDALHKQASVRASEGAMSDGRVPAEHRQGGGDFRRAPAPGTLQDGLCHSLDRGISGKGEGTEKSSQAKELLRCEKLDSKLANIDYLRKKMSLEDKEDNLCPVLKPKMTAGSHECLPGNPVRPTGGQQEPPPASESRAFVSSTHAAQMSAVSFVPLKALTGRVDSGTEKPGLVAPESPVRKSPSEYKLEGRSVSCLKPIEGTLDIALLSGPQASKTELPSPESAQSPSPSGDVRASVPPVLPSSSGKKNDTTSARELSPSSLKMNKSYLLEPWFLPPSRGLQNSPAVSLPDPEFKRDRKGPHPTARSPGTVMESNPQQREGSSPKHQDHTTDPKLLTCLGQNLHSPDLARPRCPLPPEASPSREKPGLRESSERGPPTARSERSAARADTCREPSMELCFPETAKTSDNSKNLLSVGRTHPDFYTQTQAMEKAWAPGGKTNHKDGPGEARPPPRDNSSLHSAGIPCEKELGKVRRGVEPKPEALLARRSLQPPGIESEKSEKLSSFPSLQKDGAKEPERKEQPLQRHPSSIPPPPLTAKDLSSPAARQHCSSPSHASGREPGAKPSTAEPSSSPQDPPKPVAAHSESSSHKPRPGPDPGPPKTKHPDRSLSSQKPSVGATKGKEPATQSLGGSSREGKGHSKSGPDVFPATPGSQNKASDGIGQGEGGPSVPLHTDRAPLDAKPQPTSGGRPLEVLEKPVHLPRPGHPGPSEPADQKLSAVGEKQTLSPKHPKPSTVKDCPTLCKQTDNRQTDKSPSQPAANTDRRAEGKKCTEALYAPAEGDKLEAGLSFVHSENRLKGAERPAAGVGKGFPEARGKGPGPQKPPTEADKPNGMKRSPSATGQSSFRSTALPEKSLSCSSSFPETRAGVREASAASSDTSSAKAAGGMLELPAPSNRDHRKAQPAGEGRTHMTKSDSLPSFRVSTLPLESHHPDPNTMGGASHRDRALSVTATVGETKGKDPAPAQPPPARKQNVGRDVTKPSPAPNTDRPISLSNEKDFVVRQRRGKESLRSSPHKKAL
Label Met when pIC50 is at or above 6; otherwise label Not met.

- Molecule: "C#CCNC(=O)c1cc(Nc2cc(C3CC3)[nH]n2)nc(N2CCN(Cc3ccc(S(=O)(=O)F)cc3)CC2)n1"
  Class assignment: "Met"
- Molecule: "Cc1cc(Nc2cc(C(=O)NCCNC(=O)OC3CC/C=C/CCC3)nc(N3CCN(Cc4ccc(S(=O)(=O)F)cc4)CC3)n2)n[nH]1 (stereo unspecified)"
  Class assignment: "Not met"

In plain terms: is recorded pIC50 at least 6 for O=C(NCCNC(=O)c1cc(Nc2cc(C3CC3)[nH]n2)nc(N2CCN(Cc3ccc(S(=O)(=O)F)cc3)CC2)n1)OC1CC/C=C/CCC1 (stereo unspecified) ? Not met

Could you please find out whether `CCNC(=O)c1cc(Nc2cc(C)[nH]n2)nc(N2CCN(Cc3ccc(S(=O)(=O)F)cc3)CC2)n1` has pIC50 that meets 6 or exceeds it? Met

Would you say `CCNC(=O)c1cc(Nc2cc(C3CC3)[nH]n2)nc(N2CCN(Cc3ccc(S(=O)(=O)F)cc3)CC2)n1` shows pIC50 at minimum 6? Met
